// provenance: paper PMC12444563

# measurement-target: bovine spleen Cathepsin B (Bos taurus, UniProt P07688)
# Construct: bovine spleen Cathepsin B (SigmaAldrich C6286, ≥10 units/mg protein); purchased SigmaAldrich C6286; host or cells: bovine spleen (tissue-derived)
# experimental-protocol: Cathepsin B cleavage assay (UHPLC-HRMS Orbitrap analysis)
# Type: biochemical
# condition-summary: 15 min incubation with Cathepsin B, 37 °C, pH 5.4, 5 μM, triplicate
Starred links: 1 amine or outer side, 2 acyl side, 3 side chain; linkers in the order of their positions; H or OH if unused. Non-standard residues stand in square brackets, D forms with d. Residues, ends and D or L forms follow the SMILES beside them. *: point of attachment. Paclitaxel(2'-OCO-DMEDA) = CC(=O)O[C@H]1C(=O)[C@@]2(C)[C@H]([C@H](OC(=O)c3ccccc3)[C@]3(O)C[C@H](OC(=O)[C@H](OC(=O)N(C)CCN(C)*)[C@@H](NC(=O)c4ccccc4)c4ccccc4)C(C)=C1C3(C)C)[C@]1(OC(C)=O)CO[C@@H]1C[C@@H]2O; Fmoc = O=C(OCC1c2ccccc2-c2ccccc21)*; PABC = O=C(OCc1ccc(N[*:1])cc1)[*:2]
Give measured % residual compound, Average % for each item. Keep answers brief.
Answer with a number only, understood to be in %.

Request: Dear colleague, I am looking for the recorded % residual compound, Average % of the following compound: CC(=O)O[C@H]1C(=O)[C@@]2(C)[C@H]([C@H](OC(=O)c3ccccc3)[C@]3(O)C[C@H](OC(=O)[C@H](OC(=O)N(C)CCN(C)C(=O)OCc4ccc(NC(=O)[C@H](C)NC(=O)[C@@H](NC(=O)OCC5c6ccccc6-c6ccccc65)C(C)C)cc4)[C@@H](NC(=O)c4ccccc4)c4ccccc4)C(C)=C1C3(C)C)[C@]1(OC(C)=O)CO[C@@H]1C[C@@H]2O
Response: 89.84

Request: For the compound CC(=O)O[C@H]1C(=O)[C@@]2(C)[C@H]([C@H](OC(=O)c3ccccc3)[C@]3(O)C[C@H](OC(=O)[C@H](OC(=O)N(C)CCN(C)C(=O)OCc4ccc(NC(=O)CNC(=O)[C@H](CC(C)C)NC(=O)[C@@H]5CCCN5C(=O)CNC(=O)OCC5c6ccccc6-c6ccccc65)cc4)[C@@H](NC(=O)c4ccccc4)c4ccccc4)C(C)=C1C3(C)C)[C@]1(OC(C)=O)CO[C@@H]1C[C@@H]2O [Compound 1, Fmoc-GPLG-PABC-diamine-PTX] (Fmoc-GPLG[PABC]-{Paclitaxel(2'-OCO-DMEDA)}) , what % residual compound, Average % is on record?
Response: 80.50

Request: Entry CC(=O)O[C@H]1C(=O)[C@@]2(C)[C@H]([C@H](OC(=O)c3ccccc3)[C@]3(O)C[C@H](OC(=O)[C@H](OC(=O)N(C)CCN(C)C(=O)OCc4ccc(NC(=O)CNC(=O)[C@H](CC(C)C)NC(=O)[C@H](Cc5ccccc5)NC(=O)CNC(=O)OCC5c6ccccc6-c6ccccc65)cc4)[C@@H](NC(=O)c4ccccc4)c4ccccc4)C(C)=C1C3(C)C)[C@]1(OC(C)=O)CO[C@@H]1C[C@@H]2O [Compound 2, Fmoc-GFLG-PABC-diamine-PTX] (Fmoc-GFLG[PABC]-{Paclitaxel(2'-OCO-DMEDA)}) : reported % residual compound, Average % = ?
Response: 98.45

Request: Sample CC(=O)O[C@H]1C(=O)[C@@]2(C)[C@H]([C@H](OC(=O)c3ccccc3)[C@]3(O)C[C@H](OC(=O)[C@H](OC(=O)N(C)CCN(C)C(=O)OCc4ccc(NC(=O)[C@H](CCCNC(N)=O)NC(=O)[C@@H](NC(=O)OCC5c6ccccc6-c6ccccc65)C(C)C)cc4)[C@@H](NC(=O)c4ccccc4)c4ccccc4)C(C)=C1C3(C)C)[C@]1(OC(C)=O)CO[C@@H]1C[C@@H]2O — what was its % residual compound, Average %?
Response: 89.60

* * *

# measurement-target: bovine spleen Cathepsin B (Bos taurus)
# Construct: bovine spleen Cathepsin B (SigmaAldrich C6286, ≥10 units/mg protein); purchased SigmaAldrich C6286; host or cells: bovine spleen (tissue-derived)
# experimental-protocol: Cathepsin B cleavage assay (UHPLC-HRMS Orbitrap analysis)
# Type: biochemical
# condition-summary: replicate R1, 15 min
quantity-kind: % residual compound, % R1 (%)
Just the number please, in %, no unit attached.

Request: What does the record list as % residual compound, % R1 for CC(=O)O[C@H]1C(=O)[C@@]2(C)[C@H]([C@H](OC(=O)c3ccccc3)[C@]3(O)C[C@H](OC(=O)[C@H](OC(=O)N(C)CCN(C)C(=O)OCc4ccc(NC(=O)[C@H](CCCNC(N)=O)NC(=O)[C@@H](NC(=O)OCC5c6ccccc6-c6ccccc65)C(C)C)cc4)[C@@H](NC(=O)c4ccccc4)c4ccccc4)C(C)=C1C3(C)C)[C@]1(OC(C)=O)CO[C@@H]1C[C@@H]2O ?
Response: 87.83

* * *

# measurement-target: bovine spleen Cathepsin B (Bos taurus, UniProt P07688)
# Construct: bovine spleen Cathepsin B (SigmaAldrich C6286, ≥10 units/mg protein); purchased SigmaAldrich C6286; host or cells: bovine spleen (tissue-derived)
# experimental-protocol: Cathepsin B cleavage assay (UHPLC-HRMS Orbitrap analysis)
# Type: biochemical
# condition-summary: 120 min incubation with Cathepsin B, 37 °C, pH 5.4, 5 μM, triplicate
# Description: […]
Starred links: 1 amine or outer side, 2 acyl side, 3 side chain; linkers in the order of their positions; H or OH if unused. Non-standard residues stand in square brackets, D forms with d. Residues, ends and D or L forms follow the SMILES beside them. *: point of attachment. Paclitaxel(2'-OCO-DMEDA) = CC(=O)O[C@H]1C(=O)[C@@]2(C)[C@H]([C@H](OC(=O)c3ccccc3)[C@]3(O)C[C@H](OC(=O)[C@H](OC(=O)N(C)CCN(C)*)[C@@H](NC(=O)c4ccccc4)c4ccccc4)C(C)=C1C3(C)C)[C@]1(OC(C)=O)CO[C@@H]1C[C@@H]2O; Fmoc = O=C(OCC1c2ccccc2-c2ccccc21)*; PABC = O=C(OCc1ccc(N[*:1])cc1)[*:2]
For each entry below, report its % residual compound, Average % value.
Numbers only here, please. The scale is %.

Request: For the record CC(=O)O[C@H]1C(=O)[C@@]2(C)[C@H]([C@H](OC(=O)c3ccccc3)[C@]3(O)C[C@H](OC(=O)[C@H](OC(=O)N(C)CCN(C)C(=O)OCc4ccc(NC(=O)[C@H](CCCNC(N)=O)NC(=O)[C@@H](NC(=O)OCC5c6ccccc6-c6ccccc65)C(C)C)cc4)[C@@H](NC(=O)c4ccccc4)c4ccccc4)C(C)=C1C3(C)C)[C@]1(OC(C)=O)CO[C@@H]1C[C@@H]2O , what value of % residual compound, Average % is listed for bovine spleen Cathepsin B (Bos taurus, UniProt P07688)?
Response: 80.39

Request: Tell me reported % residual compound, Average % for CC(=O)O[C@H]1C(=O)[C@@]2(C)[C@H]([C@H](OC(=O)c3ccccc3)[C@]3(O)C[C@H](OC(=O)[C@H](OC(=O)N(C)CCN(C)C(=O)OCc4ccc(NC(=O)[C@H](C)NC(=O)[C@@H](NC(=O)OCC5c6ccccc6-c6ccccc65)C(C)C)cc4)[C@@H](NC(=O)c4ccccc4)c4ccccc4)C(C)=C1C3(C)C)[C@]1(OC(C)=O)CO[C@@H]1C[C@@H]2O , tested with bovine spleen Cathepsin B (Bos taurus, UniProt P07688).
Response: 58.50

Request: Given the entry CC(=O)O[C@H]1C(=O)[C@@]2(C)[C@H]([C@H](OC(=O)c3ccccc3)[C@]3(O)C[C@H](OC(=O)[C@H](OC(=O)N(C)CCN(C)C(=O)OCc4ccc(NC(=O)CNC(=O)[C@H](CC(C)C)NC(=O)[C@H](Cc5ccccc5)NC(=O)CNC(=O)OCC5c6ccccc6-c6ccccc65)cc4)[C@@H](NC(=O)c4ccccc4)c4ccccc4)C(C)=C1C3(C)C)[C@]1(OC(C)=O)CO[C@@H]1C[C@@H]2O [Compound 2, Fmoc-GFLG-PABC-diamine-PTX] (Fmoc-GFLG[PABC]-{Paclitaxel(2'-OCO-DMEDA)}) , what % residual compound, Average % was observed with bovine spleen Cathepsin B (Bos taurus, UniProt P07688)?
Response: 94.14

* * *

# measurement-target: bovine spleen Cathepsin B (Bos taurus, UniProt P07688)
# Construct: bovine spleen Cathepsin B (SigmaAldrich C6286, ≥10 units/mg protein); purchased SigmaAldrich C6286; host or cells: bovine spleen (tissue-derived)
# experimental-protocol: Cathepsin B cleavage assay (UHPLC-HRMS Orbitrap analysis)
# Assay type: biochemical
# condition-summary: replicate R1, 2 min
Starred links: 1 amine or outer side, 2 acyl side, 3 side chain; linkers in the order of their positions; H or OH if unused. Non-standard residues stand in square brackets, D forms with d. Residues, ends and D or L forms follow the SMILES beside them. *: point of attachment. Paclitaxel(2'-OCO-DMEDA) = CC(=O)O[C@H]1C(=O)[C@@]2(C)[C@H]([C@H](OC(=O)c3ccccc3)[C@]3(O)C[C@H](OC(=O)[C@H](OC(=O)N(C)CCN(C)*)[C@@H](NC(=O)c4ccccc4)c4ccccc4)C(C)=C1C3(C)C)[C@]1(OC(C)=O)CO[C@@H]1C[C@@H]2O; Fmoc = O=C(OCC1c2ccccc2-c2ccccc21)*; PABC = O=C(OCc1ccc(N[*:1])cc1)[*:2]
quantity-kind: % residual compound, % R1 (%)
Express your answer in %, writing the number without its unit.

Request: // returns reported % residual compound, % R1 for input CC(=O)O[C@H]1C(=O)[C@@]2(C)[C@H]([C@H](OC(=O)c3ccccc3)[C@]3(O)C[C@H](OC(=O)[C@H](OC(=O)N(C)CCN(C)C(=O)OCc4ccc(NC(=O)CNC(=O)[C@H](CC(C)C)NC(=O)[C@@H]5CCCN5C(=O)CNC(=O)OCC5c6ccccc6-c6ccccc65)cc4)[C@@H](NC(=O)c4ccccc4)c4ccccc4)C(C)=C1C3(C)C)[C@]1(OC(C)=O)CO[C@@H]1C[C@@H]2O [Compound 1, Fmoc-GPLG-PABC-diamine-PTX] (Fmoc-GPLG[PABC]-{Paclitaxel(2'-OCO-DMEDA)})
Response: 108.85
